Just for reference, the supplement of paper PMC9233669 is where these values come from.

system: biotinyl-Ile-oxazolone; test: self-aminoacylation, catalytic enhancement (BIO) (fold over background); higher = more active; k-Seq, kA / k0A0; sequences stand for … in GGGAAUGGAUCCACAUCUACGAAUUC…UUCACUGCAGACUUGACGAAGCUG
Fewer inactive variants are shown than the library holds.
Cut-off 0.9 on self-aminoacylation, inclusive. At or above means yes (1); below means no (0).

1. CCACAGUACAAGCAAUCGGUC [Fam1B.1 aminoacylation ribozyme variant] = yes (1)
2. AUUCACCUAGGGCAUCGGGUU [Fam2.2 aminoacylation ribozyme variant] = yes (1)

Dear colleague, could you confirm whether CCACGCUUCAAGCAAACGGUC [Fam1B.1 aminoacylation ribozyme variant] has self-aminoacylation at or above 0.9?
no (0)

Dear colleague, could you confirm whether CUACUUCAUAAAAUCGGUCUG [Fam1A.1 aminoacylation ribozyme variant] has self-aminoacylation at or above 0.9?
no (0)

Dear colleague, could you confirm whether GUUUCCCUGGUCAUCGAGUGA [Fam2.1 aminoacylation ribozyme variant] has self-aminoacylation at or above 0.9?
yes (1)

Dear colleague, could you confirm whether CUACUUCAUACAAUCGGUCUU [Fam1A.1 aminoacylation ribozyme variant] has self-aminoacylation at or above 0.9?
yes (1)

Dear colleague, could you confirm whether AUUCGGCUAGGUCAUCGGGUG [Fam2.2 aminoacylation ribozyme variant] has self-aminoacylation at or above 0.9?
yes (1)
